experiment: in vivo; conditions: mouse, iv, 12.5 mg/kg
Peptide text beside a SMILES is read from it.
property: AUC(0-t) (ng·h/mL)

compound="C[C@H](NC(=O)[C@@H](N)CS)C(=O)N[C@@H](CCC(N)=O)C(=O)N[C@@H](CCCCN)C(N)=O [CAQK, cysteine-alanine-glutamine-lysine] (H-CAQK-NH2)" units_of_measure=ng·h/mL observed_value=27400

---

Test: in vivo
Conditions: mouse, iv, 12.5 mg/kg
Method: Figure 2 Pharmacokinetic analysis of CAQK. (A) Mice with CCI received i.v. bolus of CAQK (12.5 mg/kg) at 4 h after CCI. Blood was collected at different time points, and plasma was analyzed by LC/MS. Plasma concentration of CAQK was plotted using WinNonlin. […] (C) CAQK accumulation was analyzed in brain homogenates from injured (ipsilateral) and uninjured (contralateral) sides at different time points after i.v. injection and plotted as ng/g of brain tissue. […] Data were expressed as mean ± SEM. […]
Peptide text beside a SMILES is read from it.
property: clearance (mL/min/kg)

molecule="C[C@H](NC(=O)[C@@H](N)CS)C(=O)N[C@@H](CCC(N)=O)C(=O)N[C@@H](CCCCN)C(N)=O [CAQK, cysteine-alanine-glutamine-lysine] (H-CAQK-NH2)" observed_value=7.5
